# MEASUREMENT TARGET: N-terminally truncated (Δ 27) Abl kinase (Homo sapiens)
# Sequence (P00519 28-1130 limits assumed, stated change not applied): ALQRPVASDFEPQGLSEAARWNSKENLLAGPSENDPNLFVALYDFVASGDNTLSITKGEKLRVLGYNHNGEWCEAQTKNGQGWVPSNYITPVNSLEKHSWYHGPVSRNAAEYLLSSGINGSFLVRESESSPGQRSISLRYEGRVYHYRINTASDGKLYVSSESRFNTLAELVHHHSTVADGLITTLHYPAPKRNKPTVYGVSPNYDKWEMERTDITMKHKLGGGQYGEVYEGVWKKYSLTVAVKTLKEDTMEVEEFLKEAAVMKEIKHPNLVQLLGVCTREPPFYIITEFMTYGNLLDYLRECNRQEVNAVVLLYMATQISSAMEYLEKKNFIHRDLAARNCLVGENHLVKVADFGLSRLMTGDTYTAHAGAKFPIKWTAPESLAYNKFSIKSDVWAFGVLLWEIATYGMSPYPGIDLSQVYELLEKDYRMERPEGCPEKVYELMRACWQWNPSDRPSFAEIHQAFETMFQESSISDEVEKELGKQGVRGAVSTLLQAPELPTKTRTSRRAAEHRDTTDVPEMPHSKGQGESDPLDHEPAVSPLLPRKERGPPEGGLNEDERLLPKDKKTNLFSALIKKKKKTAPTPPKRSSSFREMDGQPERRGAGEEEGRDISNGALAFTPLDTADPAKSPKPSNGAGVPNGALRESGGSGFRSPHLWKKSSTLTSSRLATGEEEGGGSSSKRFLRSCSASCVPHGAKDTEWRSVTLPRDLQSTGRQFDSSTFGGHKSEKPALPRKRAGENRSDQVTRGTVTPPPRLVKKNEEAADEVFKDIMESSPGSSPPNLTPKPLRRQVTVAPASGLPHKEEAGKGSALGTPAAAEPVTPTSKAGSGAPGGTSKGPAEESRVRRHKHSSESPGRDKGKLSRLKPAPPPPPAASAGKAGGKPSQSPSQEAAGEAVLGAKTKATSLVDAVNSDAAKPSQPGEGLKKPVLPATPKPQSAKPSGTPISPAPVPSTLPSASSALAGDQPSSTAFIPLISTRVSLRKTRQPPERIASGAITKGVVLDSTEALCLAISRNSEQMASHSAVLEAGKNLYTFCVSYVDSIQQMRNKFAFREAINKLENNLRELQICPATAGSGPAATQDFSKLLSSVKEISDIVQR
# TEST METHOD NOTES: Abl kinase activity inhibition assay, coupled enzyme
I'd be grateful if you could share measured Ki for these entries.
Supply the numeric figure in nM, leaving out any unit text.

Return reported Ki; argument: Cc1cc(Nc2cc(N3CC(F)(C4CC4)C3)nc(Sc3ccc(NC(=O)CC(F)(F)F)cc3)n2)[nH]n1 23

Return reported Ki; argument: CCC(=O)Nc1ccc(Sc2nc(Nc3cc(C)[nH]n3)cc(N3CC(F)(C4CC4)C3)n2)cc1 170

Return reported Ki; argument: Cc1cc(Nc2cc(N3CC(F)(C4CC4)C3)nc(Sc3ccc(NC(=O)C4(C(F)(F)F)CC4)cc3)n2)[nH]n1 57

Return reported Ki; argument: CCC(=O)Nc1ccc(Sc2nc(Nc3cc(C)n[nH]3)cc(N3CC(O)(C4CCCC4)C3)n2)cc1 30

Return reported Ki; argument: Cc1cc(Nc2cc(N3CC(F)(C4CC4)C3)nc(Sc3ccc(NC(=O)CCC(F)(F)F)cc3)n2)[nH]n1 22

Return reported Ki; argument: Cc1cc(Nc2cc(N3CC(O)(C4CC4)C3)nc(Sc3ccc(NC(=O)C4CC4)cc3)n2)n[nH]1 30

Return reported Ki; argument: Cc1cc(Nc2cc(N3CC(F)(C4CC4)C3)nc(Sc3ccc(NC(=O)C4CC4)cc3)n2)n[nH]1 88

Return reported Ki; argument: CCC(=O)Nc1ccc(Sc2nc(Nc3cc(C)n[nH]3)cc(N3CC(O)(C4CC4)C3)n2)cc1 64

* * *

I'd be grateful if you could share measured pIC50 for these entries.
# MEASUREMENT TARGET: Arg (Abl-2) (Homo sapiens, UniProt P42684)
# Sequence (P42684 whole entry, species assumed): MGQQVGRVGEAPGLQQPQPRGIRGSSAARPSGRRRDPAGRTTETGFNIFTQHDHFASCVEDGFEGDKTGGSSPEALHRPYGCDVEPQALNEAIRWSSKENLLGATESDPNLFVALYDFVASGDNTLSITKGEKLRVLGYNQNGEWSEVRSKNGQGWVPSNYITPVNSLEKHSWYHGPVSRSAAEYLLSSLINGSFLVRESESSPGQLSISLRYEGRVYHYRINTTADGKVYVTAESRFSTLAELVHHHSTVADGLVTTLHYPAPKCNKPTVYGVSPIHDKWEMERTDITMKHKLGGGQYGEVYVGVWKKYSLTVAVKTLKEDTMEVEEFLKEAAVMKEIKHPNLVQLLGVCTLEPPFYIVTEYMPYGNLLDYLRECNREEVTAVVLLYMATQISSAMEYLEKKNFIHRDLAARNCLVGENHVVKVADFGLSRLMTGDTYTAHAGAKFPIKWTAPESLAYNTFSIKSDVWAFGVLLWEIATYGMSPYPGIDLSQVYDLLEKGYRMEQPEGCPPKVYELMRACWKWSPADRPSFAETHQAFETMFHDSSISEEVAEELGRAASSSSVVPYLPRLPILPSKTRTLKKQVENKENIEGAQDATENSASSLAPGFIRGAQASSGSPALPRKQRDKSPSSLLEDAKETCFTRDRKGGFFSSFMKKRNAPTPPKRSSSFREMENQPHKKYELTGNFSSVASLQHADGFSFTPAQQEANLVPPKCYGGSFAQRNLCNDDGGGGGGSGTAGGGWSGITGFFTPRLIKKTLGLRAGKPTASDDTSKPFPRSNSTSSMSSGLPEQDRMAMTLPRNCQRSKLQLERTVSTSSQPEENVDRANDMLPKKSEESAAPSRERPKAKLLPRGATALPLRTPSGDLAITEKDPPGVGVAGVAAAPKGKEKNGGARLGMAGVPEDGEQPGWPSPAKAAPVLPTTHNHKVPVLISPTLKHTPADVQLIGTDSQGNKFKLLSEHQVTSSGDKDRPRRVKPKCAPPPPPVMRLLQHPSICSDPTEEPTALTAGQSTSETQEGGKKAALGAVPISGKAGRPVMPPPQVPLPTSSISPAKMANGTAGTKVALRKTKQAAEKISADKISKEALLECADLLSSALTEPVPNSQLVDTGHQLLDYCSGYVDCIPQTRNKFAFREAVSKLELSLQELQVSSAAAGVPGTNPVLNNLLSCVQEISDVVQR
# TEST METHOD NOTES: Arg (Abl-2) inhibition screen
# Type: biochemical
# ASSAY SETUP: Table 5; ATP at or close to Km
pIC50 is a log-scale quantity: -log10 of the concentration expressed in molar.

Return reported pIC50; argument: Cc1cc(Nc2cc(N3CC(F)(C4CC4)C3)nc(Sc3ccc(NC(=O)CC(F)(F)F)cc3)n2)[nH]n1 [Compound I-14] 7.85

Return reported pIC50; argument: Cc1cc(Nc2cc(N3CC(F)(C4CC4)C3)nc(Sc3ccc(NC(=O)CC4CC4)cc3)n2)[nH]n1 [Compound I-19] 6.89

Return reported pIC50; argument: Cc1cc(Nc2cc(N3CC(F)(C4CC4)C3)nc(Sc3ccc(NC(=O)CCC(F)(F)F)cc3)n2)[nH]n1 [Compound I-17] 6.68

Return reported pIC50; argument: Cc1cc(Nc2cc(N3CC(F)(C4CC4)C3)nc(Sc3ccc(NC(=O)C4CC4)cc3F)n2)n[nH]1 [Compound I-18] 7.28

* * *

# MEASUREMENT TARGET: Aurora-2 (Aurora A) (Homo sapiens)
# Sequence (O14965 whole entry): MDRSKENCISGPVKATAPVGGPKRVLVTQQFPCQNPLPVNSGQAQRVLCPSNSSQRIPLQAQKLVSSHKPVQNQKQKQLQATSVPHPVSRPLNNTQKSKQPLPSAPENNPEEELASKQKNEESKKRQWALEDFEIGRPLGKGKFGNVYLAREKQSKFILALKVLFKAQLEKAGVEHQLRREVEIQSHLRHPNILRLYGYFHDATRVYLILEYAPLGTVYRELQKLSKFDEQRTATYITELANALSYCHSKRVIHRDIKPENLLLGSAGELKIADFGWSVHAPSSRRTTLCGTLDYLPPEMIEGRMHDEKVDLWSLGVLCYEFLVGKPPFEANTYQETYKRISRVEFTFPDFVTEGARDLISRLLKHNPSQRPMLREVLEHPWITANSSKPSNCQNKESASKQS
# TEST METHOD NOTES: Aurora-2 (Aurora A) inhibition assay, coupled enzyme
# Assay type: biochemical
I'd be grateful if you could share measured Ki for these entries.

Return reported Ki; argument: Cc1cc(Nc2cc(N3CC(F)(C4CC4)C3)nc(Sc3ccc(NC(=O)C4CC4)cc3F)n2)n[nH]1 350 pM

Return reported Ki; argument: O=C(Nc1ccc(Sc2nc(Nc3cc(C4CC4)[nH]n3)cc(N3CC(O)(C4CC4)C3)n2)cc1)C1CC1 420 pM

Return reported Ki; argument: Cc1cc(Nc2cc(N3CC(F)(C4CC4)C3)nc(Sc3ccc(NC(=O)CC(F)(F)F)nc3)n2)[nH]n1 440 pM

Return reported Ki; argument: CCC(=O)Nc1ccc(Sc2nc(Nc3cc(C4CC4)[nH]n3)cc(N3CC(O)(C4CC4)C3)n2)cc1 360 pM

Return reported Ki; argument: Cc1cc(Nc2cc(N3CC(F)(C4CC4)C3)nc(Sc3ccc(NC(=O)CC4CC4)cc3)n2)[nH]n1 440 pM

Return reported Ki; argument: CCC(=O)Nc1ccc(Sc2nc(Nc3cc(C)n[nH]3)cc(N3CC(O)(CC(C)(C)C)C3)n2)cc1 400 pM

Return reported Ki; argument: CCC(=O)Nc1ccc(Sc2nc(Nc3cc(C)n[nH]3)cc(N3CC(O)(C(C)CC)C3)n2)cc1 (stereo not shown) 770 pM
